# system.name: human M5 mAChR (Homo sapiens, UniProt P08912)
# Construct: expressed in transfected cells
# Sequence (P08912 1-532): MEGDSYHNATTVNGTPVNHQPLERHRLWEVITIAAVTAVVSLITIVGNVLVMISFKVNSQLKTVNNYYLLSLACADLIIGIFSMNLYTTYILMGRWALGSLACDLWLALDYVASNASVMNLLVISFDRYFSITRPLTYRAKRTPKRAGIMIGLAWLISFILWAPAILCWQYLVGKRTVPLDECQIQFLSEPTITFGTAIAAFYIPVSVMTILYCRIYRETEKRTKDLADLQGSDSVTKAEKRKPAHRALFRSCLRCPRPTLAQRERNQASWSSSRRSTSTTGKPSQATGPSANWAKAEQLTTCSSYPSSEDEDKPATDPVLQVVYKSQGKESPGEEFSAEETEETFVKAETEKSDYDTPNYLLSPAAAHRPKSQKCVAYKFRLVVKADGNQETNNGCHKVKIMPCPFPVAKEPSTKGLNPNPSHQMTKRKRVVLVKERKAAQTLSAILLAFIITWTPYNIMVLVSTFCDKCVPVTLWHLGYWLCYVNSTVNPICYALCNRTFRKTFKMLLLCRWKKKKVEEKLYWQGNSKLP
# assay.notes: Whole-cell functional agonist activity, FLIPR Ca2+ release, CHOK1-based human M5 mAChR stable cell line
# run.parameters: top of curve, % activity vs MAX control ligand, FLIPR Ca2+
# Emax per entry
observation.type: Emax (%)

{"columns": ["molecule", "system.name", "endpoint.unit", "test.value"],
 "data": [
  ["CCC(F)(F)CCCOc1nsnc1C1=CCCN(C)C1 [Example 9]", "human M5 mAChR (Homo sapiens, UniProt P08912)", "%", 40],
  ["CN1CCC=C(c2nsnc2OCCCCCC(F)(F)F)C1 [Example 1]", "human M5 mAChR (Homo sapiens, UniProt P08912)", "%", 85],
  ["CN1CCC=C(c2nsnc2OCCCCCCF)C1 [Example 7]", "human M5 mAChR (Homo sapiens, UniProt P08912)", "%", 90],
  ["CCCC(F)(F)CCOc1nsnc1C1=CCCN(C)C1 [Example 10]", "human M5 mAChR (Homo sapiens, UniProt P08912)", "%", 87],
  ["CCCCC(F)(F)COc1nsnc1C1=CCCN(C)C1 [Example 11]", "human M5 mAChR (Homo sapiens, UniProt P08912)", "%", 45],
  ["CCCCCCOc1nsnc1C1=CCCN(C)C1 [Xanomeline, reference compound]", "human M5 mAChR (Homo sapiens, UniProt P08912)", "%", 92],
  ["CN1CCC=C(c2nsnc2OCCCCC(C)(F)F)C1 [Example 8]", "human M5 mAChR (Homo sapiens, UniProt P08912)", "%", 85],
  ["CN1CCC=C(c2nsnc2OCCCCCC(F)F)C1 [Example 6]", "human M5 mAChR (Homo sapiens, UniProt P08912)", "%", 95]
]}

----------
# system.name: UniProtKB P08912
# assay.notes: Whole-cell functional agonist activity, FLIPR Ca2+ release, CHOK1-based human M5 mAChR stable cell line
# run.parameters: agonist, FLIPR Ca2+ release, CHOK1 human M5 cells
pEC50: −log10 of the molar value.
# pEC50 per entry
observation.type: pEC50

{"columns": ["molecule", "system.name", "test.value"],
 "data": [
  ["CCC(F)(F)CCCOc1nsnc1C1=CCCN(C)C1 [Example 9]", "UniProtKB P08912", 6.85],
  ["CN1CCC=C(c2nsnc2OCCCCC(C)(F)F)C1 [Example 8]", "UniProtKB P08912", 7.57],
  ["CN1CCC=C(c2nsnc2OCCCCCC(F)(F)F)C1 [Example 1]", "UniProtKB P08912", 7.65],
  ["CN1CCC=C(c2nsnc2OCCCCCCF)C1 [Example 7]", "UniProtKB P08912", 7.88],
  ["CCCCC(F)(F)COc1nsnc1C1=CCCN(C)C1 [Example 11]", "UniProtKB P08912", 5.64],
  ["CCCC(F)(F)CCOc1nsnc1C1=CCCN(C)C1 [Example 10]", "UniProtKB P08912", 7.58],
  ["CN1CCC=C(c2nsnc2OCCCCCC(F)F)C1 [Example 6]", "UniProtKB P08912", 7.83]
]}

----------
# system.name: human M3 mAChR (Homo sapiens)
# Construct: expressed in transfected cells
# Sequence (P20309 whole entry): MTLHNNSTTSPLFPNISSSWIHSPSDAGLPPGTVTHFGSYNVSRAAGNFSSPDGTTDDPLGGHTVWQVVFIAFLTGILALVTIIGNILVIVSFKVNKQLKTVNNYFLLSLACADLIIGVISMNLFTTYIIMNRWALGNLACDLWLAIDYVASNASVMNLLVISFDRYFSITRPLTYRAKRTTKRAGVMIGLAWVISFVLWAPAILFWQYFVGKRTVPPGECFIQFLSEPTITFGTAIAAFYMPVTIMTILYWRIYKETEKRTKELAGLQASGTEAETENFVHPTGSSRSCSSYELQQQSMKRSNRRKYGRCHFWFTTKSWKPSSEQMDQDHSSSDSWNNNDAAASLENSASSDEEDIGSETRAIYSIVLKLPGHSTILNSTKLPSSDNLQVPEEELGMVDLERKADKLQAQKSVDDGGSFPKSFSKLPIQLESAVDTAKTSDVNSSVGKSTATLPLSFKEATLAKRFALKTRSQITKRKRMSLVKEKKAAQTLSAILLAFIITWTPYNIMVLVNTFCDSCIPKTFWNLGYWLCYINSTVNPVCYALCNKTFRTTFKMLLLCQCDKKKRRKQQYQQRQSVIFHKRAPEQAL
# assay.notes: Whole-cell functional agonist activity, FLIPR Ca2+ release, U2OS-based human M3 mAChR stable cell line
# run.parameters: top of curve, % activity vs MAX control ligand, FLIPR Ca2+

{"columns": ["molecule", "system.name", "Emax, %"],
 "data": [
  ["CCCCC(F)(F)COc1nsnc1C1=CCCN(C)C1", "human M3 mAChR (Homo sapiens)", 3],
  ["CN1CCC=C(c2nsnc2OCCCCC(C)(F)F)C1", "human M3 mAChR (Homo sapiens)", 7],
  ["CN1CCC=C(c2nsnc2OCCCCCCF)C1", "human M3 mAChR (Homo sapiens)", 7],
  ["CN1CCC=C(c2nsnc2OCCCCCC(F)(F)F)C1", "human M3 mAChR (Homo sapiens)", 16],
  ["CCCCCCOc1nsnc1C1=CCCN(C)C1 [Xanomeline, reference compound]", "human M3 mAChR (Homo sapiens)", 17],
  ["CCCC(F)(F)CCOc1nsnc1C1=CCCN(C)C1", "human M3 mAChR (Homo sapiens)", 9],
  ["CCC(F)(F)CCCOc1nsnc1C1=CCCN(C)C1", "human M3 mAChR (Homo sapiens)", 2],
  ["CN1CCC=C(c2nsnc2OCCCCCC(F)F)C1", "human M3 mAChR (Homo sapiens)", 11]
]}

----------
# system.name: human M4 mAChR (Homo sapiens)
# Sequence (P08173 whole entry): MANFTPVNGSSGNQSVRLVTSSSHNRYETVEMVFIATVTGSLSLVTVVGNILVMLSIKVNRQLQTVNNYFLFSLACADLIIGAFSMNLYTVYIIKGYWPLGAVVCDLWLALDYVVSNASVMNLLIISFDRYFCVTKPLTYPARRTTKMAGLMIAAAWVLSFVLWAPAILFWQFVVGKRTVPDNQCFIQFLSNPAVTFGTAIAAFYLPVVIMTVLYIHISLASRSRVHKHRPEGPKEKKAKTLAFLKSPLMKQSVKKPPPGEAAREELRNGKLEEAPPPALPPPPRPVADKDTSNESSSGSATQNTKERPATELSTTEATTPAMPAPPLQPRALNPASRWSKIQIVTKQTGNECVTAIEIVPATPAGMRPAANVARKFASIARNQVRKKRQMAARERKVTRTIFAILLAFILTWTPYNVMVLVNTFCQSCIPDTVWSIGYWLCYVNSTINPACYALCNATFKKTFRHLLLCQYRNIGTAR
# assay.notes: Whole-cell functional agonist activity, phospho-ERK (pERK), CHOK1-based human M4 mAChR stable cell line
# run.parameters: agonist, CHOK1 human M4 cells
Binary call on EC50 with cut-off 10 nM: strictly below means criterion met, and equality or higher means criterion not met.

{"columns": ["molecule", "class"],
 "data": [
  ["CCCCC(F)(F)COc1nsnc1C1=CCCN(C)C1 [Example 11]", "criterion not met"],
  ["CN1CCC=C(c2nsnc2OCCCCCCF)C1 [Example 7]", "criterion met"],
  ["CN1CCC=C(c2nsnc2OCCCCC(C)(F)F)C1 [Example 8]", "criterion not met"],
  ["CN1CCC=C(c2nsnc2OCCCCCC(F)F)C1 [Example 6]", "criterion not met"],
  ["CCC(F)(F)CCCOc1nsnc1C1=CCCN(C)C1 [Example 9]", "criterion not met"],
  ["CN1CCC=C(c2nsnc2OCCCCCC(F)(F)F)C1 [Example 1]", "criterion not met"]
]}

----------
# system.name: human M1 mAChR (Homo sapiens)
# Construct: expressed in transfected cells
# Sequence (P11229 1-460): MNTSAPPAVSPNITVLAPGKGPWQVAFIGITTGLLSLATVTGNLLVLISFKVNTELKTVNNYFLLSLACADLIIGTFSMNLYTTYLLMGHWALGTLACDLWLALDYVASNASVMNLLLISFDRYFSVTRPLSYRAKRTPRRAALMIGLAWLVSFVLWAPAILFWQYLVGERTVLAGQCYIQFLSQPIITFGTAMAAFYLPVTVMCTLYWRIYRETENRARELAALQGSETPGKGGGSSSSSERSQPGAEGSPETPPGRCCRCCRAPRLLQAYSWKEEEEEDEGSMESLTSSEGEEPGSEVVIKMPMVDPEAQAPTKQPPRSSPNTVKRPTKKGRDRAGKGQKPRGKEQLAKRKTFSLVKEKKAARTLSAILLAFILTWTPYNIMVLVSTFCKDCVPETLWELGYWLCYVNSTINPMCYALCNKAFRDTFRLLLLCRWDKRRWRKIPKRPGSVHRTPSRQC
# assay.notes: Whole-cell functional agonist activity, FLIPR Ca2+ release, U2OS-based human M1 mAChR stable cell line
# run.parameters: top of curve, % activity vs MAX control ligand, FLIPR Ca2+

{"columns": ["molecule.smiles", "system.name", "Emax [%]"],
 "data": [
  ["CN1CCC=C(c2nsnc2OCCCCC(C)(F)F)C1", "human M1 mAChR (Homo sapiens)", 87],
  ["CCCCC(F)(F)COc1nsnc1C1=CCCN(C)C1", "human M1 mAChR (Homo sapiens)", 32],
  ["CN1CCC=C(c2nsnc2OCCCCCC(F)F)C1", "human M1 mAChR (Homo sapiens)", 94],
  ["CN1CCC=C(c2nsnc2OCCCCCCF)C1", "human M1 mAChR (Homo sapiens)", 93],
  ["CCC(F)(F)CCCOc1nsnc1C1=CCCN(C)C1", "human M1 mAChR (Homo sapiens)", 46],
  ["CCCC(F)(F)CCOc1nsnc1C1=CCCN(C)C1", "human M1 mAChR (Homo sapiens)", 90],
  ["CN1CCC=C(c2nsnc2OCCCCCC(F)(F)F)C1", "human M1 mAChR (Homo sapiens)", 90]
]}
